PROCEDURE DETAILS: NCI Yeast Anticancer Drug Screen. Data for the mlh1 rad18 strain (AID 175)
CONDITION LABEL: S. cerevisiae mlh1 rad18 strain growth inhibition; at 50.0 µM; stronger effect = higher value
The panel holds about 79,000 compounds, 15% with a hit somewhere; the sample as a whole holds those more often.

# COMPOUND, growth inhibition / %
records = [
    ("O=[N+]([O-])c1ccc(COP(=O)(OCc2ccc([N+](=O)[O-])cc2)OCc2ccc([N+](=O)[O-])cc2)cc1", 4.75),
    ("CCOC(=O)N1CCN(Cc2cc(=O)n3cc(C)ccc3n2)CC1", 2.2),
    ("O=C1OCC(CN2CCC(n3c(=O)[nH]c4ccccc43)CC2)=C1c1ccccc1", -35.9),
    ("NNC(=O)N/N=C/c1cccc(O)c1", -19.4),
    ("CC(C)CC1=C(C(=O)c2ccoc2)CC(C)C1 (stereo unspecified)", -7.1),
    ("COc1ccc(/C=N/NC(=O)/C(C#N)=C/c2ccc(OC)cc2)cc1", 16.4),
    ("Cn1ccnc1CCc1c(Cl)cccc1Cl", -22.9),
    ("FC(F)(F)c1cc(Nc2nc(-c3ccccc3)nc3c2C(=NCc2ccco2)OC3=NCc2ccco2)ccc1Cl", 9.75),
    ("Nc1ccc2cccc(N)c2n1", -0.55),
    ("CC1CCCCC1(C)O (stereo unspecified)", 11.4),
    ("COc1ccc(Nc2nc(N)nc3c2ncn3C2OC(CO)C(O)C2O)cc1 (stereo unspecified)", -11.5),
]

* * *

Recorded growth inhibition for the following compounds
PROCEDURE DETAILS: NCI Yeast Anticancer Drug Screen. Data for the rad50 strain (AID 155);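 further: 0% = growth of vehicle-only cultures of the same strain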
CONDITION LABEL: S. cerevisiae rad50 strain growth inhibition; at 50.0 µM; stronger effect = higher value
About 79,000 compounds went through this panel and 15% of them were active in at least one assay; those are over-represented in the sample as a whole.
TEST READOUT: growth inhibition (%)

# COMPOUND, OUTPUT UNIT, OBSERVED RESULT
data = [
    ("O=C(Cl)C(c1ccccc1)N1C(=O)c2ccccc2C1=O (stereo unspecified)", "%", 7.15),
    ("Nc1ccc(C(=O)N/N=C/c2ccc(Cl)cc2Cl)cc1", "%", 27),
    ("NNC(=O)/C(NC(=O)c1ccccc1)=C(\\N)c1cccc([N+](=O)[O-])c1", "%", -34.4),
    ("C/C=C(\\C)C(C#N)(CCCC)C(=O)OCC (stereo unspecified)", "%", 0.3),
    ("COc1cccc(/C=C/C(=O)c2sc(C(N)=S)nc2C)c1O", "%", 14.2),
    ("CC(=O)c1sc2c(c1OC(=O)c1cccs1)c(=O)n(-c1ccccc1)c(=S)n2-c1ccccc1", "%", 22.2),
    ("COC(=O)C(C(=O)C(=O)Nc1ccc(C)cc1)c1nc2ccc([N+](=O)[O-])cc2[nH]c1=O (stereo unspecified)", "%", 16.9),
    ("O=C(O)c1c(Cl)ccc(F)c1Cl", "%", 9.45),
    ("COc1ccc(/C=N/N2CN(C(C)C(=O)O)C(C)(O)N=C2N)cc1OC (stereo unspecified)", "%", -14.2),
    ("S=C1SC(=Nc2ccccc2)C(=Nc2ccccc2)N1c1ccccc1", "%", -21.1),
    ("CC(C(=O)O)c1ccc(-n2nnc3c(=O)[nH][nH]c(=O)c32)cc1 (stereo unspecified)", "%", -16.2),
]

* * *

# reported growth inhibition; entries follow
PROCEDURE DETAILS: NCI Yeast Anticancer Drug Screen. Data for the cln2 rad14 strain (AID 165);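 further: 0% = growth equal to vehicle treated cultures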
CONDITION LABEL: S. cerevisiae cln2 rad14 strain, at 50.0 µM, stronger effect = higher value
Compounds without any hit were thinned out: in the full panel of roughly 79,000, 15% have a hit.

# COMPOUND, OUTPUT UNIT, growth inhibition
measured = [
    ("O=C(N/N=C/c1ccccc1[O-])c1ccccc1O.O=C(N/N=C/c1ccccc1[O-])c1ccccc1O.[Fe+2]", "%", 19.3),
    ("O=C(NCCCl)Nc1ccc2c(c1)CCC2", "%", -10.8),
    ("C=CCOC(=O)C(C)OC(=O)OCC (stereo not drawn)", "%", 8.1),
    ("CC(=O)Nc1cc(F)c(N=Nc2ccc([N+](=O)[O-])cc2)c(F)c1", "%", -38.2),
    ("COc1ccc(N2C(=O)C3c4[nH]c5ccccc5c4C4CCCCC4C3C2=O)cc1 (stereo not drawn)", "%", 9.95),
    ("S=c1c2ccccc2sn1-c1ccccc1", "%", -0.85),
    ("OC1(c2ccc(C3(O)C(c4ccccc4)=C(c4ccccc4)C(c4ccccc4)=C3c3ccccc3)cc2)C(c2ccccc2)=C(c2ccccc2)C(c2ccccc2)=C1c1ccccc1", "%", -6.6),
    ("CC(C)CC(C)C", "%", 5.75),
    ("O=C(OCCN1CCCCC1)C(c1ccccc1)C1(O)CCSCC1 (stereo not drawn)", "%", 25.9),
    ("CC1N(/N=C/c2ccccc2)C(c2ccccc2)C(c2ccccc2)N1/N=C/c1ccccc1 (stereo not drawn)", "%", 5.3),
    ("Nc1cc(S(N)(=O)=O)ccc1O", "%", -10.6),
    ("O=C(CC(=O)n1nc(-c2ccccc2)c(N=Nc2ccccc2Cl)c1-c1ccccc1)Nc1ccc(Cl)cc1", "%", 13.9),
    ("O=[N+]([O-])c1ccc(OS(=O)(=O)Cc2ccccc2)cc1", "%", -36.6),
    ("COC(=O)C1(CC(=O)c2cccc3ccccc23)NC(=S)NC(=O)C1C#N (stereo not drawn)", "%", -13.3),
    ("O=C1/C(=C/c2ccc(Br)cc2)CCC/C1=C\\c1ccc(Br)cc1", "%", -15.8),
    ("Nc1nc(-c2cc(C(c3ccccc3)c3ccccc3)nc(N)n2)cc(C(c2ccccc2)c2ccccc2)n1", "%", 3.45),
    ("CC(=O)Oc1cc(C(F)(F)F)ccc1C(=O)OC1(C)OC(=O)c2ccc(C(F)(F)F)cc2O1 (stereo not drawn)", "%", -2.85),
    ("CC(C)/C=C1\\CCC(CN2CCCC2)C1=O (stereo not drawn)", "%", 44.5),
    ("CCOc1c(OC)cc(-c2nc3n(n2)C(=O)C(CC)S3)cc1OC (stereo not drawn)", "%", -4.85),
    ("C[C@]12CC=CC(=O)[C@@]1(C)CCC(=O)C2", "%", -25.4),
    ("O=C(O)CCNc1cccs1", "%", -63.8),
    ("O=S1(=O)CC=CC1", "%", 13.2),
    ("COc1cc(C(c2ccc3c(c2)OCO3)N2C(=O)CCC2C(=O)O)cc(OC)c1OC (stereo not drawn)", "%", -11.7),
    ("CCCCN(CCCC)CC(O)c1cc(-c2ccc(Cl)cc2)nc2c(Cl)cc(Cl)cc12 (stereo not drawn)", "%", 18.1),
    ("COc1c(N)c(C)nc(Cl)c1C#N", "%", -1.05),
    ("O=C(CO)CC(=O)C(=O)Nc1nc([N+](=O)[O-])cs1", "%", 7.9),
    ("CC(=O)Cc1ccco1", "%", 22.5),
    ("Cc1ccc(S(=O)(=O)OC2C(C)(C)C(=O)C2(C)C)cc1", "%", -11.7),
    ("CC1CC(C)(C)OC(C2CC=CCC2)O1 (stereo not drawn)", "%", -1.95),
    ("NC(N)=NC(N)=Nc1ccccc1", "%", -5.9),
    ("NC(=S)N/N=C1\\C(=O)N(CCc2ccccc2)C(=O)C1C(=O)NCCc1ccccc1 (stereo not drawn)", "%", 14.1),
    ("C[n+]1cccc(NC(=O)COc2ccc(Cl)c(Cl)c2)c1", "%", -18),
    ("CC(C)Cc1ccc(NC2=C(Cl)C(=O)c3ccccc3C2=O)cc1", "%", 25.1),
    ("C1CC2CC1CC2C1CO1 (stereo not drawn)", "%", 0.75),
    ("Cc1c(-c2ccccc2)nc(N(C)C)oc1=O", "%", -9),
    ("Cc1ccc(N2C3=C(CC4=C2CC(C)(C)CC4=O)C(=O)CC(C)(C)C3)cc1", "%", -15.9),
    ("Cc1cc(Cl)c(Cl)cc1NC(=O)C(Br)C(Br)c1ccccc1 (stereo not drawn)", "%", 68.7),
    ("Clc1ccnnc1Cl", "%", 13.2),
    ("Nc1ccccc1OCOCOc1ccccc1N", "%", -11.4),
    ("Cc1ccc(NCC(=O)N2CC(=O)Nc3ccccc32)cc1", "%", -4.45),
    ("CC1CCC(C(C)(C)O)CC1O (stereo not drawn)", "%", -9.05),
    ("O=c1c(-c2ccccc2)nc2ccccc2n1CC1CCCN2CCCC[C@H]12 (stereo partly drawn)", "%", -38.9),
    ("c1ccc(C2=NOC(c3ccccc3)N2C23CC4CC(CC(C4)C2)C3)cc1 (stereo not drawn)", "%", 24.4),
    ("COc1cc2c(c(Cl)c1OC)CCN(C)CC2c1ccccc1 (stereo not drawn)", "%", -9.5),
    ("O=S(/N=C/c1ccccc1)c1ccc(Cl)cc1 (stereo not drawn)", "%", 13.9),
    ("CNC(=O)OCc1nc(SC(C)C)n(C)c1COC(=O)NC", "%", 4.3),
    ("CCNC(=O)[B-][N+](C)(C)C", "%", 35.4),
    ("CCCCOC(OCCCC)C(OCCCC)OCCCC", "%", -0.4),
]
